# measured target: MCL-1/Bim interaction (recombinant human MCL-1 protein, residues 171-327; biotinylated human Bim peptide, residues 51-76) (Homo sapiens (Human))
# Sequence (Q07820 171-327): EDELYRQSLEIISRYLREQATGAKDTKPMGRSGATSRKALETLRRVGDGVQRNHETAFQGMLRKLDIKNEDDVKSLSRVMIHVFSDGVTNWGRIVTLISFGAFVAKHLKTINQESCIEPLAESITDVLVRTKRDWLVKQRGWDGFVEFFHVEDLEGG
# test summary: MCL-1/Bim Binding AlphaLISA Assay
# cond: 0.0625 nM 6xHis-Mcl-1 (171-327), 0.0625 nM biotinylated-Bim peptide
# Experimental: MCL-1/Bim Binding AlphaLISA Assay. Inhibition of the MCL-1 and Bim interaction was measured in the following AlphaLISA assay. Recombinant human MCL-1 protein (C-terminal 6×His Tagged Mcl-1 containing residues 171-327) was generated at Gilead Sciences, Inc. (Foster City, Calif.). […] The AlphaLISA assay was performed in a 384-well Proxiplate in a total volume of 40 μL. […] The reaction plates were then read on an Envision multimode reader (PerkinElmer) using AlphaScreen settings. […]
pIC50: −log10 of the molar value.
measured attribute: pIC50

Solved entries:
CO[C@H]1/C=C/C[C@H](C)C[S@@](=O)(NC(=O)c2cc(CN3CCN(C4COC4)CC3)n(C)c2)=NC(=O)c2ccc3c(c2)N(C[C@@H]2CC[C@H]21)C[C@@]1(CCCc2cc(Cl)ccc21)CO3    10.54
CO[C@H]1/C=C/CCC[S@@](=O)(NC(=O)OCc2ccnn2C)=NC(=O)c2ccc3c(c2)N(C[C@@H]2CC[C@H]21)C[C@@]1(CCCc2cc(Cl)ccc21)CO3    9.10

[a] CO[C@H]1/C=C/CCC[S@@](=O)(NC(=O)CCc2ccc(Cl)cc2)=NC(=O)c2ccc3c(c2)N(C[C@@H]2CC[C@H]21)C[C@@]1(CCCc2cc(Cl)ccc21)CO3
[b] CO[C@H]1/C=C/C[C@H](C)C[S@@](=O)(NC(=O)[C@H](O)Cc2ccccc2)=NC(=O)c2ccc3c(c2)N(C[C@@H]2CC[C@H]21)C[C@@]1(CCCc2cc(Cl)ccc21)CO3
[c] CO[C@H]1/C=C/C[C@H](C)[C@@H](C)[S@@](=O)(NC(=O)COC2CCOCC2)=NC(=O)c2ccc3c(c2)N(C[C@@H]2CC[C@H]21)C[C@@]1(CCCc2cc(Cl)ccc21)CO3
Please list the entries, largest pIC50 first. // respond by listing labels in the order requested
c, b, a

----------
# measured target: MCL-1/Bim interaction (recombinant human MCL-1 protein, residues 171-327; biotinylated human Bim peptide, residues 51-76) (Homo sapiens (Human))
# test summary: MCL-1/Bim Binding AlphaLISA Assay
# cond: 0.0625 nM 6xHis-Mcl-1 (171-327), 0.0625 nM biotinylated-Bim peptide
pIC50: −log10 of the molar value.
measured attribute: pIC50

CO[C@H]1/C=C/C[C@H](C)C[S@@](=O)(NC(=O)N2CC(O)C2)=NC(=O)c2ccc3c(c2)N(C[C@@H]2CC[C@H]21)C[C@@]1(CCCc2cc(Cl)ccc21)CO3    10.28
CCn1ccc(C(=O)N[S@@]2(=O)=NC(=O)c3ccc4c(c3)N(C[C@@H]3CC[C@H]3[C@@H](OC)/C=C/C[C@H](C)C2)C[C@@]2(CCCc3cc(Cl)ccc32)CO4)c1    9.74

[a] COCC1(OC)CN(C(=O)N[S@@]2(=O)=NC(=O)c3ccc4c(c3)N(C[C@@H]3CC[C@H]3[C@@H](OC)/C=C/C[C@H](C)C2)C[C@@]2(CCCc3cc(Cl)ccc32)CO4)C1
[b] CO[C@H]1/C=C/CCC[S@@](=O)(NC(C)=O)=NC(=O)c2ccc3c(c2)N(C[C@@H]2CC[C@H]21)C[C@@]1(CCCc2cc(Cl)ccc21)CO3
Recorded pIC50 values differ for a and b ; which one is higher? Output the label that corresponds to your choice.
a
